biological target: heparinase (Pedobacter heparinus, UniProt Q05819); construct: the heparinase was isolated from Flavobacterium heparinum; test: Inhibition of heparinase (heparin / antithrombin III / factor Xa chromogenic assay)
Sequence (Q05819 22-384): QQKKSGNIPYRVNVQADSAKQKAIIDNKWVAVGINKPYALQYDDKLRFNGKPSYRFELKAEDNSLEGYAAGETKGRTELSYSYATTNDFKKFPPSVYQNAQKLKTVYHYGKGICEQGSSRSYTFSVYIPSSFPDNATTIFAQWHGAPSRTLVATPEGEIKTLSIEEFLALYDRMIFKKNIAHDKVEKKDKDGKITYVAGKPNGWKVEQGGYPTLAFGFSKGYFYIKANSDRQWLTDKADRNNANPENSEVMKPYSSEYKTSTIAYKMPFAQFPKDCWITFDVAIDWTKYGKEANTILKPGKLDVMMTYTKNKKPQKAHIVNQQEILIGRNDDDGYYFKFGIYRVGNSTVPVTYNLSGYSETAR
# IC50 values compiled below
Write it as a number; the unit µM goes unstated.

# Molecule, Data Value
rows = [
    ("CCCCCCCCCCCCCCCc1cc(OC2OC(C(=O)OC)C(O)C(O)C2O)cc(O)c1C(=O)Oc1cc(C)c(C(=O)O)c(O)c1 (single isomer, unassigned)", 25),
]

--- query ---
Lookup: Which IC50 value is on record for CCCCCCCCCCCCCCCc1cc(OC2OC(C(=O)O)C(O)C(O)C2O)cc(O)c1C(=O)Oc1cc(C)c(C(=O)O)c(O)c1 (centres unmarked) ?
Found: 3

====

biological target: heparanase derived from human platelets (Homo sapiens, UniProt Q9Y251); construct: 10 ng of heparanase derived from human platelets; assay: Inhibition of heparanase (3H-heparan sulfate degradation); conditions: 10 ng heparanase, 30 min at 37° C., pH 5.1; read-out: IC50 against heparanase
Sequence (Q9Y251 158-543 limits assumed): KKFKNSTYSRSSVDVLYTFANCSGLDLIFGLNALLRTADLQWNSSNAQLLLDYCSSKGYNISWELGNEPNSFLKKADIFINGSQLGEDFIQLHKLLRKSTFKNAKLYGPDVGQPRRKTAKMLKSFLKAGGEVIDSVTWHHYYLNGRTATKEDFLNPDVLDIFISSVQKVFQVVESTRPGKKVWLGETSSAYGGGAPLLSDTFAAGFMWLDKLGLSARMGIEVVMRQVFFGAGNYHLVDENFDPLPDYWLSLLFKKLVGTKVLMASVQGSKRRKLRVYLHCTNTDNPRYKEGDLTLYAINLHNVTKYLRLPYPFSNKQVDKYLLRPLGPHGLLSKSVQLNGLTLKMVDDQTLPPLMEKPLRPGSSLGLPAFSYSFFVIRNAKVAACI
Sequence (Q9Y251 36-109 limits assumed): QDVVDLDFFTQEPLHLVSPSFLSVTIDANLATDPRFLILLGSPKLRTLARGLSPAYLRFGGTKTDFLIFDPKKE
Observed Property: pIC50
# pIC50: negative log10 of molar concentration; output just the value

Lookup: Suppose we examine the compound CCCCCCCCCCCCCCCc1cc(OC2OC(C(=O)O)C(O)C(O)C2O)cc(O)c1C(=O)Oc1cc(C)c(C(=O)O)c(O)c1 (stereo not shown) [CRM646-A] ; what pIC50 value has been reported?
Found: 5.00
